Measured Purity after 1 h (%) values are reported for all entries that follow.
- Protocol: Light stability in MCT oil (HPLC % area)
- Format: physicochemical
- Run parameters: light exposure 1 h
I only need the number, in %, no unit after it.

CC(C)=CCC/C(C)=C/CC/C(C)=C/CC/C(C)=C/CC/C(C)=C/CC/C(C)=C/CC/C(C)=C/Cc1c(C)c(OC(=O)c2ccccc2)c2ccccc2c1O [Example 2B]    91.9
CCOP(=O)(OCC)Oc1c(C)c(C/C=C(\C)CC/C=C(\C)CC/C=C(\C)CC/C=C(\C)CC/C=C(\C)CC/C=C(\C)CCC=C(C)C)c(OC(=O)CC)c2ccccc12 [Example 9]    90.1

Moving on to the next compound.
Input line: Bench note: what Purity after 1 h (%) did CCC(=O)Oc1c(C/C=C(\C)CC/C=C(\C)CC/C=C(\C)CC/C=C(\C)CC/C=C(\C)CC/C=C(\C)CCC=C(C)C)c(C)c(OC(=O)CCNC(=O)OC(C)(C)C)c2ccccc12 [Example 12] show?
Output line: 91.9
